Quick list: EC50 per entry.
# Test system: MDA-MB-231
# ASSAY REMARKS: ATP luminescence proliferation assay, MDA-MB-231
# Type: cell-based, human
# CONDITION INFO: Homo sapiens, MDA-MB-231, 48 h, read-out: EC50 MDA-MB-231 (48 h), ATP luminescence, MDA-MB-231, 48 h incubation
PARAMETER: EC50 (µM)

{"MOLECULE": "CCCC(NC(=O)c1csc([C@@H](C[C@H](C(C)C)N(C)C(=O)[C@@H](NC(=O)[C@H]2CCCCN2C)[C@@H](C)CC)OC)n1)C(=O)OC (stereo partly drawn)", "ASSAY RESULT": 0.065}
{"MOLECULE": "CC[C@H](C)[C@H](NC(=O)[C@H]1CCCCN1C)C(=O)N(C)[C@H](C[C@@H](OC)c1nc(C(=O)N[C@H](CCC(=O)OC)Cc2ccccc2)cs1)C(C)C", "ASSAY RESULT": 0.12}
{"MOLECULE": "CC[C@H](C)[C@H](NC(=O)[C@H]1CCCCN1C)C(=O)N(C)[C@H](C[C@@H](OC)c1nc(C(=O)NC(Cc2ccccc2)C[C@H](C)C(=O)O)cs1)C(C)C (stereo partly drawn)", "ASSAY RESULT": 0.0056}

###

# Tested on: A2058
# ASSAY REMARKS: ATP luminescence proliferation assay, A2058
# Assay type: cell-based, human
# CONDITION INFO: Homo sapiens, A2058, 48 h, read-out: EC50 A2058 (48 h), ATP luminescence, A2058, 48 h incubation

{"COMPOUND": "CCCC(NC(=O)c1csc([C@@H](C[C@H](C(C)C)N(C)C(=O)[C@@H](NC(=O)[C@H]2CCCCN2C)[C@@H](C)CC)OC)n1)C(=O)OC (stereo partly drawn)", "EC50 / nM": 30}
{"COMPOUND": "CC[C@H](C)[C@H](NC(=O)[C@H]1CCCCN1C)C(=O)N(C)[C@H](C[C@@H](OC)c1nc(C(=O)N[C@H](CCC(=O)OC)Cc2ccccc2)cs1)C(C)C", "EC50 / nM": 93}
{"COMPOUND": "CC[C@H](C)[C@H](NC(=O)[C@H]1CCCCN1C)C(=O)N(C)[C@H](C[C@@H](OC)c1nc(C(=O)NC(Cc2ccccc2)C[C@H](C)C(=O)O)cs1)C(C)C (stereo partly drawn)", "EC50 / nM": 3.5}

###

Below, each entry is listed with its recorded EC50.
# Test system: NCI-H460
# ASSAY REMARKS: ATP luminescence proliferation assay, NCI-H460
# Assay type: cell-based, human
# CONDITION INFO: ATP luminescence, NCI-H460, 72 h incubation; read-out: EC50 NCI-H460 (72 h)
PARAMETER: EC50 (nM)

{"COMPOUND": "CC[C@H](C)[C@H](NC(=O)[C@H]1CCCCN1C)C(=O)N(COC(=O)CC(C)C)[C@H](C[C@@H](O)c1nc(C(=O)N[C@@H](Cc2ccccc2)C(=O)OC)cs1)C(C)C", "ASSAY RESULT": 35}
{"COMPOUND": "CC[C@H](C)[C@H](NC(=O)[C@H]1CCCCN1C)C(=O)N(COC(=O)CC(C)C)[C@H](C[C@@H](OC(C)=O)c1nc(C(=O)N[C@@H](Cc2ccccc2)C(=O)OC)cs1)C(C)C", "ASSAY RESULT": 3}
{"COMPOUND": "CC[C@H](C)[C@H](NC(=O)[C@H]1CCCCN1C)C(=O)N(C)[C@H](C[C@@H](OC)c1nc(C(=O)N[C@@H](Cc2ccc(N)cc2)CC(C)C(=O)O)cs1)C(C)C (stereo partly drawn)", "ASSAY RESULT": 14}
